Provide the reported IC50 of each item.
Target Of Assay: Aβ1-42 (Homo sapiens, UniProt P05067)
Sequence (P05067 672-713 limits assumed): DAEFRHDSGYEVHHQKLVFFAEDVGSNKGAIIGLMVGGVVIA
Procedure Summary: FRET assay of Aβ1-42 oligomer (ADDL) assembly inhibition
Type: biochemical
Reported Conditions: 0.2 μM FITC-Aβ(1-42) and 0.8 μM Aβ(1-42), 37° C., six concentrations from about 10 μM to about 0.03 μM
Please respond with the number in µM and leave the unit unwritten.

Entry under test: O=C(N/N=C/c1cc(F)cc(Cl)c1O)c1ccccc1O [Compound 40] . Its IC50 was 2.1

IC50 reading for COc1ccc(O)c(/C=N/NC(=O)c2cc([N+](=O)[O-])ccc2O)c1 [Compound 104] : 35.1

Noted for COc1ccc(O)c(/C=N/NC(=O)c2cc(OC)ccc2O)c1 [Compound 82] : its IC50 reads 15.1

The recorded IC50 for CN1CCN(C(=O)C/C(=N/NC(=O)c2ccccc2O)C(F)(F)F)CC1 [Compound 6] is 7.1

Short answer for O=C(N/N=C/c1cccc(F)c1O)c1ccccc1O [Compound 74] : IC50 was 10.9

Recorded IC50 (compound Cc1nnsc1C(=O)N/N=C(/CC(=O)c1cccs1)C(F)(F)F [Compound 11] ): 8.4

compound O=C(C/C(=N/NC(=O)c1ccccc1NS(=O)(=O)c1ccc(Cl)cc1)C(F)(F)F)c1cccs1 [Compound 16] , IC50 observed: 9.7

Just so you know, measured IC50 for CCN(CC)c1ccc(/C=N/NC(=O)c2ccccc2O)c(O)c1 [Compound 80] came out at 14.4

Lookup result for NC(=O)c1ccccc1/C=N/NC(=O)c1ccccc1O [Compound 64] ; measured IC50: 7.1

Source: patent US20110098309A1
